# Assay procedure: Microsomal stability assay, mouse liver microsomes
# Format: in vitro ADME
# Measurement conditions: 10 μM
Measured property: Mics (m) comp remaining 60 min (%)
# output: bare number, implied unit %

Past entries and their recorded results:
O=P(O)(O)CP(=O)(O)OC[C@H]1O[C@@H](n2ccc3c(-c4ccc5ccccc5c4)nc(F)nc32)[C@H](O)[C@@H]1O [14D.7]    105
O=P(O)(O)CP(=O)(O)OC[C@H]1O[C@@H](n2cnc3c(-c4cccc5ccccc45)ncnc32)[C@H](O)[C@@H]1O [31A.6]    108
O=P(O)(O)CP(=O)(O)OC[C@H]1O[C@@H](n2ccc3c(-c4cnc5ccccc5c4)ncnc32)[C@H](O)[C@@H]1O [4A.20]    110
O=P(O)(O)CP(=O)(O)OC[C@H]1O[C@@H](n2ccc3c(-c4ccc5c(c4)CCCC5)nc(Cl)nc32)[C@H](O)[C@@H]1O [7B.23]    123
Nc1nc(-c2ccco2)c2ccn([C@@H]3O[C@H](COP(=O)(O)CP(=O)(O)O)[C@@H](O)[C@H]3O)c2n1 [11C.1]    103
O=P(O)(O)CP(=O)(O)OC[C@H]1O[C@@H](n2ccc3c(-c4ccc5c(c4)CCCC5)ncnc32)[C@@H](F)[C@@H]1O [34A.17]    89
CC1(C)Cc2cc(-c3nc(Cl)nc4c3ccn4[C@@H]3O[C@H](COP(=O)(O)CP(=O)(O)O)[C@@H](O)[C@H]3O)ccc2O1 [7B.30]    88
O=P(O)(O)CP(=O)(O)OC[C@H]1O[C@@H](n2ccc3c(-c4ccccc4)ncnc32)[C@@H](F)[C@@H]1O [34A.5]    97

# evaluate next
Can you share its Mics (m) comp remaining 60 min? I mean this molecule: O=P(O)(O)CP(=O)(O)OC[C@H]1O[C@@H](n2ccc3c(-c4ccnc5ccccc45)ncnc32)[C@H](O)[C@@H]1O [4A.17]
79

---

# Assay procedure: Microsomal stability assay, mouse liver microsomes
# Type: in vitro ADME
# Measurement conditions: 10 μM
Recorded measurements of Mics (m) comp remaining 60 min, one per entry
# output: bare number, implied unit %

O=P(O)(O)CP(=O)(O)OC[C@H]1O[C@@H](n2ccc3c(-c4cccc5ccccc45)ncnc32)[C@@H](F)[C@@H]1O [34A.6]    94
O=P(O)(O)CP(=O)(O)OC[C@H]1O[C@@H](n2ccc3c(-c4cccc5ccccc45)nc(Cl)nc32)[C@H](O)[C@@H]1O [7B.6]    94
O=P(O)(O)CP(=O)(O)OC[C@H]1O[C@@H](n2cnc3c(-c4cccc5c4CCCC5)ncnc32)[C@H](O)[C@@H]1O [31A.12]    88
Nc1nc(-c2ccc3ccccc3c2)c2ccn([C@@H]3O[C@H](COP(=O)(O)CP(=O)(O)O)[C@@H](O)[C@H]3O)c2n1 [11C.7]    97
O=P(O)(O)CP(=O)(O)OC[C@H]1O[C@@H](n2cnc3c(-c4ccc5ccccc5c4)ncnc32)[C@H](O)[C@@H]1O [31A.7]    87
Cc1nc(-c2ccc3ccccc3c2)c2ccn([C@@H]3O[C@H](COP(=O)(O)CP(=O)(O)O)[C@@H](O)[C@H]3O)c2n1 [18E.7]    97
O=P(O)(O)CP(=O)(O)OC[C@H]1O[C@@H](n2ccc3c(-c4cccc5ccccc45)nc(F)nc32)[C@H](O)[C@@H]1O [14D.6]    111
Cc1nc(-c2cc3ccccc3o2)c2ccn([C@@H]3O[C@H](COP(=O)(O)CP(=O)(O)O)[C@@H](O)[C@H]3O)c2n1 [18E.8]    103
O=P(O)(O)CP(=O)(O)OC[C@H]1O[C@@H](n2ccc3c(-c4ccco4)nc(F)nc32)[C@H](O)[C@@H]1O [14D.1]    96

# evaluate next
Can you share its Mics (m) comp remaining 60 min? I mean this compound: O=P(O)(O)CP(=O)(O)OC[C@H]1O[C@@H](n2ccc3c(-c4cc5ccccc5o4)nc(Cl)nc32)[C@H](O)[C@@H]1O [7B.8]
109
